# target-system: c-Met kinase (recombinant c-Met) (Homo sapiens, UniProt P08581)
# Construct: 0.27 nM recombinant c-Met
# Sequence (P08581 25-1390): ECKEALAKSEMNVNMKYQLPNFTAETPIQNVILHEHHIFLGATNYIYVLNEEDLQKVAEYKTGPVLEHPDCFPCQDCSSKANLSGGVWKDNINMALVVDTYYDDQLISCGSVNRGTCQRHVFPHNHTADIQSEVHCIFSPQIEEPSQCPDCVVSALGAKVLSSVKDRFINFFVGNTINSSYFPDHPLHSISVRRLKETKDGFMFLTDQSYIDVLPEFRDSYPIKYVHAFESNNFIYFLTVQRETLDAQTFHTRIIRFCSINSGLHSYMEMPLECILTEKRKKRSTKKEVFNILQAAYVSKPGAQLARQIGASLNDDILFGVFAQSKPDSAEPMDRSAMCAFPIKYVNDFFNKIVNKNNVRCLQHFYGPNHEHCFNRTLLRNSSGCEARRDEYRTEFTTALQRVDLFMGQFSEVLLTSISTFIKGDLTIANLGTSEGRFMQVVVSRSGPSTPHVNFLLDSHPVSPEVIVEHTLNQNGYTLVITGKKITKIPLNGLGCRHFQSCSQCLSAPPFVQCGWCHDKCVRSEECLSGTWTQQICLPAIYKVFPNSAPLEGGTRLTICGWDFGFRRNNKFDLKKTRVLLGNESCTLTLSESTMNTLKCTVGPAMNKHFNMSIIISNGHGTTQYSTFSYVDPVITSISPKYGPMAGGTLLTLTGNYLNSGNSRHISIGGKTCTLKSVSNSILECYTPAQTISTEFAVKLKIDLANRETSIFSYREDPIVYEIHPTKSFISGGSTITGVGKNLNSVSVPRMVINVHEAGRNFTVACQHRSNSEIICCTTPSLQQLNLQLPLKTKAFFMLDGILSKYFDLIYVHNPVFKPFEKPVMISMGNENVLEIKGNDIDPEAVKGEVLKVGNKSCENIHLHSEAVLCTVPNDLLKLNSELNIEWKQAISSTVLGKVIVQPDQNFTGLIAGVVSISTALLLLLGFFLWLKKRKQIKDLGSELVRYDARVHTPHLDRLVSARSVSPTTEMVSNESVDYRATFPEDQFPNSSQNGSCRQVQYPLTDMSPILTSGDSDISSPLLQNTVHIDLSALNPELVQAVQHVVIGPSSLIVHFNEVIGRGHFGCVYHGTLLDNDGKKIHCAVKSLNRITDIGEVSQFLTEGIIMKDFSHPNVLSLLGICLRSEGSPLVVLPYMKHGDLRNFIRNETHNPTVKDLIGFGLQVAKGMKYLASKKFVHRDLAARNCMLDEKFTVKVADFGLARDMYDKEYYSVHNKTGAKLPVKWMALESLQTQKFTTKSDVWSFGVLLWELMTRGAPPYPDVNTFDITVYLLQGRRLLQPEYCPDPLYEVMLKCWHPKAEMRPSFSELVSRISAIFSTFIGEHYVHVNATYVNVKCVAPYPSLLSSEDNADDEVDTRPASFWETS
# protocol-text: In vitro kinase assay I (homogeneous time-resolved fluorescence tyrosine kinase assay)
Reported IC50 by item:

Reference set (3 entries):
COCCOc1cnc(-c2cccc(C(C)c3nn(-c4cnn(C)c4)ccc3=O)c2)nc1 (single isomer, unassigned) [Example 222] | 100 to 1000 nM
O=c1ccn(-c2cc(F)cc(F)c2)nc1Cc1cccc(-c2ncc(OCc3ccccc3)cn2)c1 | < 100 nM
CCC(c1cccc(-c2ncc(OC)cn2)c1)c1nn(-c2cnn(C)c2)ccc1=O (racemic) | < 100 nM

Query: Sample CCOC(=O)Nc1cccc(Cc2nn(-c3ccc(OC)nc3)ccc2=O)c1 — what was its IC50?
Reply: < 100 nM

Query: What about this molecule? Cn1cc(-c2cnc(-c3cccc(Cc4nn(-c5cc(Cl)cc(C#N)c5)ccc4=O)c3)nc2)cn1
Reply: < 100 nM

Query: What about this molecule? COCC(=O)Nc1cnc(-c2cccc(Cc3nn(-c4cnn(C)c4)ccc3=O)c2)nc1
Reply: < 100 nM

Query: What about this molecule? Cn1cc(-n2ccc(=O)c(Cc3cccc(-c4ncc(OCC(=O)O)cn4)c3)n2)cn1
Reply: < 100 nM

Query: What about this molecule? CCCOC(=O)Nc1cccc(Cc2nn(-c3cnn(C(C)C)c3)ccc2=O)c1
Reply: < 100 nM

Query: What about this molecule? CC(C)Cc1nc(-c2cccc(Cc3nn(-c4cnn(C)c4)ccc3=O)c2)no1
Reply: 100 to 1000 nM

Query: What about this molecule? CCOc1cnc(-c2cccc(Cc3nn(-c4cnn(CC(C)(C)O)c4)ccc3=O)c2)nc1
Reply: < 100 nM

Query: What about this molecule? CCOC(=O)Nc1cccc(Cc2nn(-c3cc(F)cc(F)c3)ccc2=O)c1
Reply: < 100 nM

Query: What about this molecule? CN(C)C/C=C/c1cnc(-c2cccc(Cc3nn(-c4cnn(C)c4)ccc3=O)c2)nc1
Reply: < 100 nM

Query: What about this molecule? CC(Oc1cnc(-c2cccc(Cc3nn(-c4cnn(C)c4)ccc3=O)c2)nc1)C(C)(C)O (racemic)
Reply: < 100 nM

Query: What about this molecule? Cn1cc(-n2ccc(=O)c(Cc3cccc(-c4ncc(NC(=O)OC(C)(C)C)cn4)c3)n2)cn1
Reply: < 100 nM

Query: What about this molecule? Cn1cc(-n2ccc(=O)c(Cc3cccc(NC(=O)OCCn4cncn4)c3)n2)cn1
Reply: < 100 nM

Query: What about this molecule? Cn1cc(-n2ccc(=O)c(Cc3cccc(-c4ncc(N5CCS(=O)(=O)CC5)cn4)c3)n2)cn1
Reply: < 100 nM

Query: What about this molecule? COCCn1cnc(-c2cccc(Cc3nn(-c4cnn(C)c4)ccc3=O)c2)n1
Reply: < 100 nM

Query: What about this molecule? CCOc1cnc(-c2cccc(Cc3nn(-c4cnn(C5CNC5)c4)ccc3=O)c2)nc1
Reply: < 100 nM

Query: What about this molecule? Cn1cc(-n2ccc(=O)c(Cc3cccc(NC(=O)OCC4COCCO4)c3)n2)cn1 (racemic)
Reply: < 100 nM

Query: What about this molecule? Cn1cc(-n2ccc(=O)c(Cc3cccc(-c4noc(CC5CCOCC5)n4)c3)n2)cn1
Reply: 100 to 1000 nM
